B1: RSPH3 (parent)
chain: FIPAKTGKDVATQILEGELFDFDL

- Variants of: B1
- ASSAY_METHOD_TEXT: protein stability index of a GFP-peptide fusion (GPS, HEK-293T) (PSI 1-6); higher = more stable;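 further: lentivirally expressed fusions sorted by FACS into six bins by GFP to DsRed ratio, PSI derived from sequencing read proportions per bin multiplied by bin number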
- CONDITION_SET: c terminus: a fixed tail appended
READOUT_KIND: protein stability index

>>> obs_value("A4K")
1.9
>>> obs_value("D21H")
1.79
>>> obs_value("F22L")
1.98
>>> obs_value("A11T")
1.91
>>> obs_value("G17L")
1.48
>>> obs_value("A11K")
2.24
>>> obs_value("D9N")
3.27
>>> obs_value("F22W")
1.91
>>> obs_value("L15T")
1.66
>>> obs_value("Q13S")
2.32
>>> obs_value("G17T")
2.11
>>> obs_value("L15I")
1.87
>>> obs_value("A11Y")
4.25
>>> obs_value("I14W")
2.71
>>> obs_value("A4N")
2.35
>>> obs_value("P3G")
2.5
>>> obs_value("A11L")
1.27
>>> obs_value("D23Q")
1.99
>>> obs_value("Q13E")
1.65
>>> obs_value("F1E")
5.01
>>> obs_value("A11F")
2.13
>>> obs_value("I2E")
4.16
>>> obs_value("E18V")
2.46
>>> obs_value("F1Y")
1.9
>>> obs_value("Q13V")
2.55
>>> obs_value("T12L")
2.18
>>> obs_value("I14Y")
2.47
>>> obs_value("G17H")
2.34
